method description: Toxicity liver stage against HepG2, at 10uM
Type: cell-based
Design: test concentration 10 uM, cell line HepG2-A16-CD81EGFP
recorded conditions: human, HepG2-A16-CD81EGFP cells; read-out: INHIBITION
endpoint name: cytotoxicity at 10 µM
In your response, put the unit directly after the numeric value.

Which cytotoxicity at 10 µM is reported for this compound? `CNC(=O)[C@H]1C[C@@H]2CN(C(=O)c3cccnc3)C[C@@H]2N1S(C)(=O)=O` -4.12%

Check `COc1ccc(-n2cc(CNC(=O)c3ccccn3)nn2)cc1` too. -4.05%

What would you report for `CC(C)Cn1cncc1Cn1cccc(C(F)(F)F)c1=O` ? -10.2%

Would you mind doing CC(C(=O)N1CCCN(Cc2ccc(C#N)cc2)CC1)n1cccn1 (stereo not drawn) as well? -5.6%

Then this compound: COCCOc1ccccc1NC(C)C(=O)NC(=O)NC(C)(C)C (stereo not drawn) 1.47%

Now consider `O=C(c1cscn1)N1C[C@@H]2C[C@@H](c3nnc(C4CC4)o3)O[C@@H]2C1` and answer again. -16.9%

Record: Nc1cc(C(=O)N2CCCC3(C=Cc4ccccc4O3)CC2)ccn1 (stereo not drawn) 13.7%

Try `CN(C)C(=O)c1nnc2ccc(N3CCOCC3)cc2n1` next. 6.47%

Same thing, different compound: `Cc1cc(N2CCC(n3cc(CN4CCC[C@@H]4CO)nn3)CC2)ccn1` 4.9%

Next compound: `Cc1nonc1OCCNC(=O)CCCc1ccc(Cl)cc1` 7.49%

Would you kindly repeat that for `CC(=O)N1CCC(NC(=O)c2cc(S(N)(=O)=O)ccc2C)CC1` ? 11.7%

Proceed to `c1cc(CO[C@@H]2CC[C@H]3[C@H]2OCCN3CC2CCOCC2)ccn1` 26.9%

And what about the compound `Cc1cnc(N)nc1NCCSCc1[nH]cnc1C` ? 4.34%

Also need `CN(C)C(=O)c1n[nH]c2c1CN(CC1CCC1)C2` , thanks. -2.22%

Follow-up entry: `FC(F)(F)c1ccc(CNC[C@H]2COCc3nc4cccnc4n32)cc1` 8.04%

And then `O=S(=O)(NCCNc1ccc(-n2cccn2)nn1)c1ccccc1` , what is it? -8.55%

Same question for `OC[C@H]1CN(Cc2c(Cl)cncc2Cl)C[C@H]1CN1CCOCC1` please. -107%

Please give the result for Cc1oncc1C(=O)N1CCC2(CC1)C(c1cnn(C)c1)CC(=O)N2C (stereo not drawn) too. -75.6%

// repeat for `CC(C)(C)CNC(=O)c1ccc(C(=O)O)nc1` and report 10.4%

What do you have for `Cc1nc(C2CCN(C(=O)CO)CC2)cc(N2CCOCC2)n1` ? -12.2%

Try CC(NC(=O)NCCCN(C)S(C)(=O)=O)c1ccncc1 (stereo not drawn) next. -0.409%

Lookup `CC(C)OC[C@H]1CCC[C@]12CN(S(=O)(=O)c1cn(C)cn1)CCO2` 5.19%

Could you do the same for `Cc1cc(-c2ccc(=O)n(CCNC(=O)C3CCC3)n2)c(C)o1` , please? -2.32%

====

method description: Toxicity liver stage against HepG2, at 10uM
Format: cell-based
Set-up: test concentration 10 uM, cell line HepG2-A16-CD81EGFP
recorded conditions: human, HepG2-A16-CD81EGFP cells; read-out: INHIBITION
Consider the following compounds; for each one, report its cytotoxicity at 10 µM.

So what's the measured cytotoxicity at 10 µM for this one? `NC(=O)c1nnn(-c2ccc(Cl)cc2)n1` 8.99%

And what about the compound `Cc1nn(C)c(C)c1C(=O)N1CCN(c2ccncc2Cl)CC1` ? -2.25%

Follow-up entry: `Cc1nnsc1CNC(=O)CSCc1ccccc1Cl` -2.85%

Please answer likewise for CCC1COC2(CCN(C(=O)c3ccco3)CC2)C1 (configuration not stated) -65.4%

Same question, `CCc1nnc2n1CCN(C(=O)c1cc3cc(C)ccc3[nH]1)C2` this time 0.893%

Likewise for `O=C(CCc1cccnc1)N1CCC(c2cnccn2)CC1` ? -10.4%

Let us now turn to Cc1nc(CN2CCC3(CCN(c4ncc(F)cn4)C3)C2=O)cs1 (configuration not stated) 3.61%

Now this one: COc1ccc(C(=O)N2Cc3cc(C)ccc3OCC2CN(C)C)cc1 (configuration not stated) -14.5%

Record: COc1ccc(C(=O)C2CCCN(Cc3ccccc3O)C2)c(OC)c1 (configuration not stated) 5.45%

Further, for COc1ccc(OC)c(C(C)Nc2nc3c(C)nn(C)c3c(=O)n2C)c1 (configuration not stated) ? -15%

Further, for `COc1ccc(NC(=O)c2cnc(C3CCN(C)CC3)nc2C)cc1` ? -1.46%

Now consider Cc1csc(CCNC(=O)C2CCCN(C3CCOCC3)C2)n1 (configuration not stated) and answer again. 3.01%

====

method description: Toxicity liver stage against HepG2, at 10uM
Format: cell-based
Design: test concentration 10 uM, cell line HepG2-A16-CD81EGFP
recorded conditions: human, HepG2-A16-CD81EGFP cells; read-out: INHIBITION
endpoint name: cytotoxicity at 10 µM
Give the figure together with its unit, number first.

Data request, read-out cytotoxicity at 10 µM, for O=C(CCc1nnc(-c2ccsc2)o1)NCC1CCN(C2CC2)C1 (stereo unspecified) -1.73%

// query: CN(C)C(=O)N1CCc2c(nnn2C)C1COCC1CC1 (stereo unspecified) 12.6%

Input Cc1cccc(C(C(=O)NCCn2cccc2)N(C)C)c1 (stereo unspecified) -9.12%

Next record, please: Cc1csc(N2CCN(CC(=O)Nc3cc(C)nn3C)CC2C)n1 (stereo unspecified) -10.2%

Follow-up item: `Cc1noc(C)c1CN(C)Cc1csc(-c2ccc(C(C)C)cc2)n1` 54.8%

Further, for `c1cnc(OCc2nnc3n2CCN(CC2CC2)C3)nc1` ? -1.93%

Another compound to check: CC1CN(c2ccccc2Cl)C(=O)CN1C(=O)c1c[nH]c(=O)c(Cl)c1 (stereo unspecified) 0.345%

Input CN(C)C(=O)N1Cc2nnn(C)c2C(COCc2cccnc2)C1 (stereo unspecified) 10.8%

Follow-up entry: CC1CCN(c2cc(CCC3CCCN3)ncn2)CC1 (stereo unspecified) -14.6%

Then what about the compound CN(CCC(F)(F)F)C(=O)C1CCCN1C(=O)OC(C)(C)C (stereo unspecified) ? -0.653%

Again, but for O=S(=O)(CC1CCCCO1)Nc1cnn(Cc2ccccc2)c1 (stereo unspecified) 4.34%

And then `COCC(=O)NCCC(=O)N1CCN(S(=O)(=O)c2ccc(Br)cc2)CC1` , what is it? -38.2%

// next record `Cn1cc(CN2CC[C@H]3C[C@H](c4nc(C5CC5)cs4)O[C@@H]3C2)cn1` -6.78%

What do you get for Cc1nc(NC(=O)C(C)S(C)(=O)=O)sc1Cc1ccc(F)cc1 (stereo unspecified) ? 4.52%

Check COc1c(C2CCCN2Cc2c(C)noc2C)c(C)nn1C (stereo unspecified) too. 5.73%

Repeat for the following compound: COCCN1CCN(CC(O)c2ccc(OC(F)(F)F)cc2)CC1 (stereo unspecified) -22.1%

# iterate: COc1ccccc1C1(C(=O)N2CCN(CC(C)O)CC2)CC1 (stereo unspecified) -3.51%

One more compound: `COc1ccc(Cl)cc1CS(=O)(=O)CC(=O)N(C)Cc1ccccc1F` 2.53%

And the next one, `c1cc(CN2CCCCC2)cc(NCc2cc[nH]n2)c1` ? -6.05%

Try this compound next: CCN(c1ccc(C(=O)N2CCCC2c2cnn(C)c2)cn1)C(C)C (stereo unspecified) -0.607%

Quick one: `Cc1cnc(C(=O)N2C[C@H]3CN(Cc4nccs4)C[C@H]3C2)cn1` -147%

Same question, `CS(=O)(=O)N1CCO[C@@H]2CCN(C(=O)c3cccs3)CC[C@H]21` this time -2.35%

Query CN(C)S(=O)(=O)c1ccc(CNC(=O)C2CC(=O)N(C(C)(C)C)C2)cc1 (stereo unspecified) next 2.13%

Another compound: CC(NC(=O)NCCOc1ccc(F)c(F)c1)c1nncn1C (stereo unspecified) -0.192%

Here is the next compound: `CCS(=O)(=O)N(C)C1CCN(C(=O)c2ccc(Cl)cc2)CC1` -5.87%

Queued: `O=C(O)CCC(=O)Nc1nn(Cc2ccc(F)cc2)cc1Cl` 13.8%

Try the compound CN(C)Cc1cc(C2CCN(C(=O)C3CC34CCC4)CC2)nn1C (stereo unspecified) -15%

Next compound up: `c1cc(CN2CCO[C@H]3[C@H](OCC4CCOCC4)CC[C@@H]32)co1` -117%

# iterate: `COCCN1C[C@@H]2[C@@H](OC)CCN(S(=O)(=O)c3cccnc3)[C@@H]2C1` -71.7%

# iterate: Cc1nn(C)c(Cl)c1C1CCCN1Cc1cn2ccsc2n1 (stereo unspecified) -44.5%

Try this compound next: `Cc1cccc(N2CCC3(CCCC(=O)N3)CC2)n1` -3.8%

Request: `CN(CCNC(=O)N1CCCC1)C(=O)OC(C)(C)C` 3.97%

Now the compound `O=C(NCc1cccs1)C1CCN(c2cc(-n3ccnc3)ncn2)CC1` -3.27%

Another compound to look at: Cc1nc(-c2cccnc2)ncc1C(=O)N1CCCCC(N)C1 (stereo unspecified) 7.57%

Item: `CN(CCc1ccccc1)Cc1nc(Cc2cccc(F)c2)no1` 0.276%

Subsequent entry: `CNS(=O)(=O)CC(=O)N1CCC(c2ccc(F)c(F)c2)CC1` 0.696%

Then what about the compound `Cc1ccccc1CN1CCC2(CCCN2C(=O)C(C)C)CC1` ? 11.7%

How about `CN1C(=O)c2ccc(NC(=O)CSc3ccc4c(c3)CCC4)cc2C1=O` ? 0.0636%

Ok, now CC(C)CCC(=O)N1CCN(C(C)c2nnc(CC(C)C)o2)CC1 (stereo unspecified) -8.82%

One more compound: Cc1nc(CN2CCCC(Nc3ncnc4ccccc34)C2)no1 (stereo unspecified) 50%

Follow-up item: CC(=O)NCCCSC1CCCN(c2ccccc2F)C1=O (stereo unspecified) -0.906%

Do the same for CC1=C(C(=O)N(C)Cc2n[nH]c3c2CCCCC3)C(C)NC(=O)N1 (stereo unspecified) please -0.178%

Entry `Cc1noc(C)c1CN1CCO[C@H]2CN(Cc3nccn3C)C[C@H]21` please 2.64%

Do the same for `N[C@H]1CN(C(=O)CCC(F)(F)F)C[C@@H]1c1ccccc1` please 6.95%

Again, but for `c1cnn(CCNCc2ccc(N3CCCCC3)cc2)c1` -10.1%

Continue with Cc1cc(C)n(C2CCCN(C(=O)Cc3csc(C)n3)C2)n1 (stereo unspecified) -10.4%
